- test_method_notes: AUC (0 to infinity) in mouse at 2 mg/kg, iv
- Format: ADME, organism-based
- test_parameters: in vivo
observation_type: AUC(0-inf) (ng·h/mL)

Past entries and their recorded results:
>>> df
                                   molecule  observation_type     unit  recorded_value
0  CCN1C(=O)C2(CCOCC2)c2ccc(-c3cc(C(=O)NCc4c(C)cc(C)[nH]c4=O)c(C)c(N(CC)C4CCOCC4)c3)cc21        AUC(0-inf)  ng·h/mL             831
1  CCN(c1cc(-c2ccc3c(c2)NC(=O)C32CCN(C)CC2)cc(C(=O)NCc2c(C)cc(C)[nH]c2=O)c1C)C1CCOCC1        AUC(0-inf)  ng·h/mL            1230

1 = CCN(c1cc(-c2ccc3c(c2)N(C)CC32CCOCC2)cc(C(=O)NCc2c(C)cc(C)[nH]c2=O)c1C)C1CCOCC1
2 = CCN(c1cc(-c2ccc(CN3CCOCC3)cc2)cc(C(=O)NCc2c(C)cc(C)[nH]c2=O)c1C)C1CCOCC1
3 = CCN(c1cc(-c2ccc3c(c2)NC(=O)C32CCOCC2)cc(C(=O)NCc2c(C)cc(C)[nH]c2=O)c1C)C1CCOCC1
4 = CCN(c1cc(-c2ccc3c(c2)CCC3N2CCOCC2)cc(C(=O)NCc2c(C)cc(C)[nH]c2=O)c1C)C1CCOCC1 (stereo unspecified)
Ask: I would appreciate it if you could sort these 4 molecules by AUC(0-inf), starting from the smallest number. I would appreciate it if you listed the labels in the requested order.
Reply: 3, 1, 4, 2
